Where do these numbers come from? They come from patent US20250376535A1.

system.name: T1, 4-1BB Fc (human, UniProt Q07011 24-183)
T1 construct: also called rh-41BB; 41BB-hFc
assay.notes: ELISA, 4-1BB Fc coated, VHH at 0.05 nM
assay.readout: OD450

>  <binder>
4-1BB-39 (VHH, not shown: small tags and cut ends) VHH: QVQLGSLGGGSAQPGGSLRLSCTGSGNVYDFVVMGWYRQFPGRQRELVANITGRASPNYVDSVKGRFTISRDNAQNTVHLQMNNLKVEDSAIYYCYAAQQLTTIAGVMTLDYWGSGTQVTVSS

>  <recorded.value>
0.068

$$$$
>  <binder>
4-1BB-9 (VHH, not shown: small tags and cut ends) VHH: QVQLVESGGGLVQAGGSLRLSCAASGSIFSYNAVAWYRQAPGKQRELVAVITSGGETTKYADSVKGRFTISRDITKNAVDLQMVSLKPEDTAVYTCAALRNSGSTSWGQGTQVTVSS

>  <recorded.value>
0.065

$$$$
>  <binder>
4-1BB-3 (VHH, not shown: small tags and cut ends) VHH: EVQLVESGGGLVQAGGSLRLSCAASGNIFSYNGMAWYRQAPGNQRELVAVVAIDGTAKYADTVKGRFTISRDNIKNTVNLEMNSLKPEDTAVYTCAALRNSGSTSWGQGTQVTVSS

>  <recorded.value>
0.06

$$$$
>  <binder>
4-1BB-56 (VHH, not shown: small tags and cut ends) VHH: QVQLVESGGGLVQTGGSLRLSCAASGRISTIDTMFWYRQTPGKERDWVAFIPKDGLPTYVDSVKGRFTVSRDNARNTVYLQMNGLKPEDTAVYYCAVDVQEDRMRTYWGQGTQVTVSS

>  <recorded.value>
0.397

$$$$
